src = ChEMBL document CHEMBL1201862

- Tested on: OVCAR-8
- ASSAY_NOTES: NCI tumour cell line growth inhibition, 48 h
The source made the active and inactive calls. Cut-off read from the data, not from the text of the source: active = GI50 up to about 1.1 µM and inactive = higher.
REPORTED_ENDPOINT: GI50

INSERT INTO measurements (compound, result) VALUES
  ('COc1cc(C2c3cccc4cccc(c34)C3CCC(=O)N32)cc(OC)c1O (centres undefined)', '> 50 µM (inactive)'),
  ('OC(c1ccco1)C(F)(F)c1nc2ccccc2o1 (centres undefined)', '> 100 µM (inactive)'),
  ('N#CC12Cc3cc4c(cc3-c3cccc(c31)CCN2C(=O)c1ccccc1)OCO4 (centres undefined)', '65.3 µM (inactive)'),
  ('[BH3-][P+]1(CC[P@@+]([BH3-])(c2ccccc2)c2ccccc2OC)[C@@H](C)[C@@H](O)[C@H](O)[C@@H]1C (some centres undefined)', '17.5 µM (inactive)'),
  ('Cc1c2ccncc2c(C)c2c1[nH]c1ccc(OCC(F)(F)F)cc12', '1.32 µM (inactive)');

Provide GI50 for all items below, preserving their order.
1. Cn1c(=O)c2nc[nH]c2n(C)c1=O
2. Oc1cc2c(cc1C(c1ccc3c(c1)OCO3)N1CCN(C(c3ccc4c(c3)OCO4)c3cc4c(cc3O)OCO4)CC1)OCO2 (centres undefined)
3. CN(C)/C=C/C=C(/C=N/S(=O)(=O)C(F)(F)F)C1C=CN(S(=O)(=O)C(F)(F)F)C=C1
4. Cc1nc2ccc(NC3OCC(O)C(O)C3O)cc2c(=O)n1-c1ccccc1 (centres undefined)

1. > 100 µM (inactive)
2. 14 µM (inactive)
3. 37.7 µM (inactive)
4. > 100 µM (inactive)

====

- Test system: SF-539
- ASSAY_NOTES: NCI tumour cell line growth inhibition, 48 h
Active and inactive are the calls of the source. Cut-off read from the data, not from the text of the source: active = GI50 up to about 1.1 µM and inactive = higher.
For each record, write down the corresponding GI50.

INSERT INTO measurements (molecule, result) VALUES
  ('O=c1[nH]cc(COCCO)c(=O)[nH]1', '> 100 µM (inactive)'),
  ('Cc1c2ccncc2c(C)c2c1[nH]c1ccc(OCC(F)(F)F)cc12', '1.75 µM (inactive)'),
  ('c1ccc(/N=C2\c3ccccc3C3=NCCCN32)cc1', '49.3 µM (inactive)'),
  ('O=C1CC(=O)N(C2CCCCC2)C(=O)N1c1ccccc1S(=O)(=O)Oc1ccccc1', '> 100 µM (inactive)');

Provide GI50 for all items below, preserving their order.
1. O=C1CCCSCCCC(=O)CCCSCCC1
2. O=C(NN1C(=O)C(Cl)C1c1cccc(Cl)c1)c1ccccc1O (configuration not stated)

["> 100 µM (inactive)", "> 100 µM (inactive)"]

====

- System: SNB-75
- ASSAY_NOTES: NCI tumour cell line growth inhibition, 48 h
Active and inactive are the calls of the source. Cut-off read from the data, not from the text of the source: active = GI50 up to about 1.1 µM and inactive = higher.
REPORTED_ENDPOINT: GI50

INSERT INTO assay_data (compound, reported_endpoint, result) VALUES
  ('O=C1c2ccccc2C(=O)c2c(NCCNC(=O)C3CCCN3)ccc(NCCNC(=O)C3CCCN3)c21 (stereo not given)', 'GI50', '53.3 µM (inactive)');

Provide GI50 for all items below, preserving their order.
1. O=C1c2ccccc2C2(O)Nc3c(ccc4ccccc34)C12O (stereo not given)
2. O=c1[nH]c(=O)n(COCCOCc2ccccc2)cc1Nc1ccccc1
3. CSc1ccc(NC(=O)C2CCCCC2C(=O)O)cc1 (stereo not given)
4. N#CCCN(c1ccc(/C=N/c2nc(-c3ccccc3)cs2)cc1)S(=O)(=O)c1ccccc1

1: > 100 µM (inactive); 2: > 100 µM (inactive); 3: > 100 µM (inactive); 4: 19.2 µM (inactive)

====

- System: UO-31
- ASSAY_NOTES: NCI tumour cell line growth inhibition, 48 h
Activity calls are given as the source filed them. Rule as the data show it: active = GI50 up to about 1.1 µM and inactive = higher.
Would you mind answering with one of these outcomes? true (1) = active, false (0) = inactive

INSERT INTO results (compound, label_value) VALUES
  ('CN(C)CC1CCC/C(=C\c2ccc(N(C)C)cc2)C1=O (configuration not stated)', 'false (0)');

// param item: N#CS/C(Cl)=C(/C(Cl)=C(Cl)Cl)[N+](=O)[O-] ; yields the recorded call
false (0)

// next record Cc1cccc2c(N)c3cccc(C(=O)NCC[N+](C)(C)Cc4sc(N5CCOCC5)nc4[N+](=O)[O-])c3nc12
false (0)

// next record O=C1CSC(C(/N=N/c2ccccc2)=C2Nc3ccccc3N2)=N1
false (0)

// next record CC(C)(C)OC(=O)N(CCCCNC(=O)OCc1ccccc1)CCCNC(=O)OCc1ccccc1
false (0)

// next record O=C1c2ccccc2C(=O)c2c(NCCNC(=O)C3CCCN3)ccc(NCCNC(=O)C3CCCN3)c21 (configuration not stated)
false (0)

// next record COc1ccc(C2NC(c3ccc(OC)cc3)C(C)C(=O)C2C)cc1 (configuration not stated)
false (0)

// next record O=C1CCCC2=C1CC1=C(CCCC1=O)N2c1ccc(-c2ccccc2)cc1
false (0)

// next record CC1(C)CC(O)C2=C(O1)C(=O)c1ncccc1C2=O (configuration not stated)
false (0)

// next record CN(c1ccccc1Cl)S(=O)(=O)c1ccccc1[N+](=O)[O-]
false (0)

====

For each record, write down the corresponding GI50.
- Test system: HT-29
- ASSAY_NOTES: NCI tumour cell line growth inhibition, 48 h
The source made the active and inactive calls. Cut-off read from the data, not from the text of the source: active = GI50 up to about 1.1 µM and inactive = higher. Bridge positions count the residues as written; N and C are the ends. Square brackets hold non-standard residues; d marks the D form. Peptide text beside a SMILES is read from it. * marks the point of attachment. Cya = N[CH](CS(=O)(=O)O)C(=O)O; X49 = CC(C)CCCCCCCC(O)CC(=O)*; GABA = NCCCC(=O)O

INSERT INTO measurements (compound, result) VALUES
  ('N#CCCN(c1ccc(/C=N/c2nc(-c3ccccc3)cs2)cc1)S(=O)(=O)c1ccccc1', '> 100 µM (inactive)'),
  ('Cc1ccc(C(=O)Nc2ccc(CP(=O)(O)O)cc2)cc1NC(=O)c1cccc(NC(=O)Nc2cccc(C(=O)Nc3cc(C(=O)Nc4ccc(CP(=O)(O)O)cc4)ccc3C)c2)c1', '> 100 µM (inactive)'),
  ('CC(C)CCCCCCCC(O)CC(=O)NC(CS(=O)(=O)O)C(=O)NC(CC(C)C)C(=O)NCCCC(=O)NC(Cc1c[nH]cn1)C(=O)NC(C)C(=O)NC1C(=O)NC(C(C)O)C(=O)NC(Cc2c[nH]cn2)C(=O)NC(C)C(=O)NC(C(C)O)C(=O)OC1C (stereo unspecified) (X49-[Cya]L[GABA]HATTHAT; ester 6-C; configuration not given here)', '> 25 µM (inactive)');

Provide GI50 for all items below, preserving their order.
1. CN1C(=O)N(C)C(O)C(Cl)(Br)C1=O (stereo unspecified)
2. COc1ccccc1N1C(=O)C2c3[nH]c4ccccc4c3C3CCC(C(C)(C)C)CC3C2C1=O (stereo unspecified)
3. CC(=O)OC1COC(n2c3ccccc3c3ccc4c5ccccc5[nH]c4c32)C(OC(C)=O)C1OC(C)=O (stereo unspecified)

["> 100 µM (inactive)", "> 100 µM (inactive)", "22.3 µM (inactive)"]

====

For each record, write down the corresponding GI50.
- Tested on: K562
- ASSAY_NOTES: NCI tumour cell line growth inhibition, 48 h
Calls of active or inactive are those of the source. Cut-off read from the data, not from the text of the source: active = GI50 up to about 1.1 µM and inactive = higher.

Solved cases (8 shown):
INSERT INTO measurements (compound, result) VALUES
  ('CN(C)c1ccc(-c2cc(O)c3ccccc3n2)cc1', '> 100 µM (inactive)'),
  ('CC(C)=CCc1c(C)cc2cc3c(c(O)c2c1O)C(=O)C=C(O)C3(CC=C(C)C)C/C=C(\C)CO (stereo unspecified)', '23.3 µM (inactive)'),
  ('CCOc1ccccc1Nc1ccc(N)cc1S(=O)(=O)O', '> 100 µM (inactive)'),
  ('COc1ccccc1/C=C\c1cc(OC)c(OC)c(OC)c1', '4.06 µM (inactive)'),
  ('O=c1[nH]c(=O)n(COCCOCc2ccccc2)cc1Nc1ccccc1', '> 100 µM (inactive)'),
  ('CCOC(=O)c1csc(-c2cn(C)c3c2C(=O)C(OC)=CC3=O)n1', '21.6 µM (inactive)'),
  ('COc1ccc(C2CCc3cc4c(cc3/C2=N/OC(C)=O)OCO4)cc1OC (stereo unspecified)', '20.2 µM (inactive)'),
  ('CC1(C)OC(=O)C(Cc2ccccc2)(Cc2ccccc2)C(=O)O1', '> 100 µM (inactive)');

Provide GI50 for all items below, preserving their order.
1. O=C1O[B-](c2ccccc2)(c2ccccc2)[NH+]2CCCC12 (stereo unspecified)
2. OCC1OC(c2scc3c(=S)[nH]cnc23)C(O)C1O (stereo unspecified)
3. COc1ccc2c(c1)[n+]([O-])c(-c1ccc(Cl)c(Cl)c1)c(N)[n+]2[O-]
4. Cc1ccc2nc3c(C)c(Cl)c(=O)cc-3sc2c1
5. CCN1/C(=C/C#C/C(C)=C\c2sc3ccc(Cl)cc3[n+]2CC)Sc2ccc(Cl)cc21
6. C#CCOCC12C=CC(O1)C1COC(=O)C12 (stereo unspecified)
7. N#CC12Cc3cc4c(cc3-c3cccc(c31)CCN2C(=O)c1ccccc1)OCO4 (stereo unspecified)
8. CC1(C)OCC([C@H]2O[C@@H](CC(=S)NCCCCCCCCCCCCNC(=S)C[C@H]3O[C@@H](C4COC(C)(C)O4)[C@H]4OC(C)(C)O[C@H]43)[C@H]3OC(C)(C)O[C@H]32)O1 (stereo partly specified)

1: 67.6 µM (inactive); 2: 13.6 µM (inactive); 3: 40.7 µM (inactive); 4: 3.65 µM (inactive); 5: 0.552 µM (active); 6: > 100 µM (inactive); 7: > 100 µM (inactive); 8: 39.4 µM (inactive)
